Each recorded value in this set is attributed to paper PMC5358875.

Target: T1, TNKS2 ARC4 (488–649) (human, UniProt Q9H2K2 488-649)
T1 sequence (looked up): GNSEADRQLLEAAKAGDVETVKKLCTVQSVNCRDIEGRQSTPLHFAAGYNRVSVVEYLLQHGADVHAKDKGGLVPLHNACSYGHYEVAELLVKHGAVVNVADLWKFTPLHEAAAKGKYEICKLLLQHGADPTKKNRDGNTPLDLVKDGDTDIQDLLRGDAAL
Test: fluorescence polarisation; direct FP; TAMRA-labeled peptide (20 nM, 50 μL) mixed with serially diluted TNKS2 ARC4 (40–0 μM, 50 μL); 50 mM HEPES pH 7.5, 300 mM NaCl, 2 mM DTT, 0.05% Tween 20; 30 min at 25 °C
Settings: both partners purified
Ends that are not written are not given here. * marks the point of attachment. 5‑TAMRA = CN(C)c1ccc2c(-c3ccc(C(=O)*)cc3C(=O)[O-])c3ccc(N(C)C)cc3[o+]c2c1; Ahx = NCCCCCC(=O)O
QUANTITY MEASURED: Kd

Data request: Any idea what its Kd is? The binder is {5‑TAMRA-Ahx}-REAGDGEE [T-pep1 (TAMRA-Ahx-REAGDGEE)]
Data returned: 800 nM
